- System: U-251
- TEST_DETAILS: NCI tumour cell line growth inhibition, 48 h
Active and inactive are the calls of the source. No stated cut-off is given here; in the data, active = GI50 up to about 1.1 µM and inactive = higher.
Give your call using only these classes: active, inactive

Consider the worked cases shown below.
compound="Nc1ncnc2c(C3OC(CO)C(O)C3O)c[nH]c12 (stereo not given)" assigned_class=active
compound=COC(=O)c1ccc([N+](=O)[O-])c(O)c1 assigned_class=inactive
compound=COC(=O)[C@@H]1CN(C(C)=O)C(=O)N1 assigned_class=inactive

Task: What call does the record list for CCOc1cc(-c2nc3ccccn3c2/N=C/c2cc([N+](=O)[O-])cc([N+](=O)[O-])c2O)ccc1O ?
Result: inactive

Task: Then this compound: CC(C)(C)c1cc(/C=C/C(=O)CC(=O)/C=C/c2cc(C(C)(C)C)c(O)c(C(C)(C)C)c2)cc(C(C)(C)C)c1O
Result: inactive

Task: Then this compound: Cc1ccc(S(=O)(=O)N(C=O)N=C2CCN(Cc3ccccc3)CC2)cc1
Result: inactive

Task: Then this compound: Cc1nc2ccccc2c(=O)n1/N=C(\N=N\c1ccccc1)c1ccccc1Cl
Result: inactive

Task: Then this compound: CSc1nc(Br)nc2c1ncn2C1CC(Oc2ccc(C)cc2)C(COc2ccc(C)cc2)O1 (stereo not given)
Result: inactive

Task: Then this compound: CC(=O)/C(=C\c1ccccc1O)C(=O)Nc1ccccc1C
Result: inactive

Task: Then this compound: O=C(N/N=C/c1ccc(Br)cc1)N/N=C/c1ccc(Br)cc1
Result: inactive

Task: Then this compound: CN(C)Cc1[nH]c2ccccc2c1C(=O)c1ccccc1
Result: inactive

Task: Then this compound: Oc1c(Br)ccc2cccnc12
Result: inactive

Task: Then this compound: O=C(c1nsc(Cl)c1Cl)N1CCCCC1
Result: inactive

Task: Then this compound: Cn1[nH]nn/c1=N\N=C\c1ccccc1
Result: inactive

Task: Then this compound: COc1cc(COC(=O)N2CC=CC2C(=O)O)c([N+](=O)[O-])cc1OC (stereo not given)
Result: inactive

###

Entries annotated with measured GI50
- Tested on: Malme-3M
- TEST_DETAILS: NCI tumour cell line growth inhibition, 48 h
Calls of active or inactive are those of the source. No stated cut-off is given here; in the data, active = GI50 up to about 1.1 µM and inactive = higher. Non-standard residues stand in square brackets, D forms with d. Residues, ends and D or L forms follow the SMILES beside them. *: point of attachment. Benzoyl(4-OMe) = COc1ccc(C(=O)*)cc1; 2Thi = N[CH](Cc1cccs1)C(=O)O

These solved cases illustrate the format of a correct answer.
compound=O/N=C/C1c2ccccc2-c2ccccc21 measurement_target=Malme-3M assay_endpoint=GI50 measured="15.2 µM (inactive)"
compound="CCC(C)C(NC(=O)C(Cc1cccs1)NC(=O)C(CC(C)C)NC(=O)C(CC(C)C)NC(=O)C(CCCCN)NC(=O)C(CCCNC(=N)N)NC(=O)c1ccc(OC)cc1)C(=O)NC(CC(C)C)C(N)=O (configuration not stated) ({Benzoyl(4-OMe)}-RKLL[2Thi]IL-NH2; configuration not given here)" measurement_target=Malme-3M assay_endpoint=GI50 measured="> 100 µM (inactive)"
compound="CC(C)(C)OC(=O)C1CC[C@@H](CC(=O)Oc2ccc([N+](=O)[O-])cc2)N1 (some centres not stated)" measurement_target=Malme-3M assay_endpoint=GI50 measured="> 100 µM (inactive)"
compound=COc1c(-c2ccc3c(c2)OCO3)oc2cc3c(c(OC)c2c1=O)OCO3 measurement_target=Malme-3M assay_endpoint=GI50 measured="24.8 µM (inactive)"

Task: Record request: GI50 value, item COc1ccc(C2C3=C(COC3=O)Oc3cc4c(cc32)OCO4)c(OC)c1 (configuration not stated)
Result: 14.9 µM (inactive)

Task: Then this compound: CCC1(O)CC(OC2CC(N(C)C)C(OC3CC(O)C(OC4OC(C)C(=O)C=C4N)C(C)O3)C(C)O2)c2c(O)c3c(c(O)c2C1C(=O)OC)C(=O)c1cccc(O)c1C3=O (configuration not stated)
Result: 0.0114 µM (active)

Task: Then this compound: N[C@H](C(=O)O)[C@@H]1CC(Br)=NO1
Result: > 25.1 µM (inactive)

Task: Then this compound: N#CC(=S)Nc1ccc(Cl)c(Cl)c1
Result: 28.1 µM (inactive)

###

- Tested on: DU-145
- TEST_DETAILS: NCI tumour cell line growth inhibition, 48 h
Calls of active or inactive are those of the source. Cut-off read from the data, not from the text of the source: active = GI50 up to about 1.1 µM and inactive = higher.
Entries annotated with measured GI50

compound="CCOC(=O)CCC(NC(=O)c1ccc(Nc2nc3ccccc3nc2-c2cccs2)cc1)C(=O)OCC (configuration not stated)" assay_endpoint=GI50 measured="29.8 µM (inactive)"
compound=C[C@]12CC/C(=N\O)C=C1CC[C@@H]1[C@@H]2CC[C@]2(C)C(=N/O)/C(=C/c3cccnc3)C[C@@H]12 assay_endpoint=GI50 measured="21.8 µM (inactive)"
compound=COC(=O)C1=C(O)c2ccc(Cl)cc2S(=O)(=O)N1C assay_endpoint=GI50 measured="> 100 µM (inactive)"
compound=CC(=O)OC(/C=C/c1ccccc1)=C(OC(C)C)/C1=C(\c2ccccc2)SCCCSC1=O assay_endpoint=GI50 measured="> 100 µM (inactive)"
compound=COC(=O)/C(=C/c1ccc(OC)cc1)c1cc(OC)c(OC)c(OC)c1 assay_endpoint=GI50 measured="1.69 µM (inactive)"
compound=[N-]=[N+]=Nc1ccc(NCCCCCC(=O)ON2C(=O)CCC2=O)c([N+](=O)[O-])c1 assay_endpoint=GI50 measured="> 100 µM (inactive)"

Task: Record request: GI50 value, item COC(=O)c1c(OC(C)=O)ccc2c1c1c(OC(C)=O)c3ccccc3c(OC(C)=O)c1n2C
Result: 19.9 µM (inactive)

Task: Then this compound: CCOC(=O)c1cc(-c2ccc([N+](=O)[O-])cc2)c([N+](=O)[O-])[nH]1
Result: 2.96 µM (inactive)

Task: Then this compound: O=c1c2cc(S(=O)(=O)Nc3ccc(Cl)cc3Cl)ccc2ncn1NS(=O)(=O)c1cccc2ccccc12
Result: 36.5 µM (inactive)

Task: Then this compound: O=C1C(/C=N/CCc2c[nH]c3ccccc23)C(C(F)(F)F)=NN1c1nc2ccccc2s1 (configuration not stated)
Result: 23.3 µM (inactive)

Task: Then this compound: Cc1c(C(=O)OCc2ccccc2)[n+]([O-])c2cc(Cl)c(Cl)cc2[n+]1[O-]
Result: 14.5 µM (inactive)

Task: Then this compound: CCC(=O)OCN1C(=O)C=CC1=O
Result: 16.6 µM (inactive)

###

- Tested on: SF-295
- TEST_DETAILS: NCI tumour cell line growth inhibition, 48 h
The source made the active and inactive calls. Cut-off read from the data, not from the text of the source: active = GI50 up to about 1.1 µM and inactive = higher.
Entries annotated with measured GI50

These solved cases illustrate the format of a correct answer.
compound="COc1cc2c(oc(=O)c3cc(C)cc(OC)c32)c2c(C3OC(C)C(O)C(C)(O)C3O)ccc(O)c12 (configuration not stated)" measured="0.358 µM (active)"
compound=COc1cc2cccc(NC(=O)c3cc(OC)c(OC)c(OC)c3Br)c2cc1OC measured="12.5 µM (inactive)"
compound="O=C1CCCC[C@H]1C(O)CC1CC(=O)N(c2ccccc2)C(=O)C1 (some centres not stated)" measured="> 100 µM (inactive)"

Task: # get_value(readout= GI50, system= SF-295) for CC(NNC(=O)CC(=O)N(C(=O)c1ccccc1)c1ccc(Cl)cc1)c1cc2ccccc2oc1=O (configuration not stated)
Result: > 10 µM (inactive)

Task: Then this compound: CCOP(=O)(CCCC(O)CNc1cc(Cl)nc(N)n1)OCC (configuration not stated)
Result: > 100 µM (inactive)

Task: Then this compound: O=C1C(/C=N/CCc2c[nH]c3ccccc23)C(C(F)(F)F)=NN1c1nc2ccccc2s1 (configuration not stated)
Result: 24 µM (inactive)

Task: Then this compound: COC1OC(C)C(NC(=O)OCC(Cl)(Cl)Cl)C2OC(C)(C)OC12 (configuration not stated)
Result: > 100 µM (inactive)

###

- Test system: KM12
- TEST_DETAILS: NCI tumour cell line growth inhibition, 48 h
Active and inactive are the calls of the source. No stated cut-off is given here; in the data, active = GI50 up to about 1.1 µM and inactive = higher.
Give your call using only these classes: active, inactive

Consider the worked cases shown below.
compound=O=S(=O)(N/C(=N\O)Nc1ccc(Cl)cc1)c1cc(C(F)(F)F)cc(C(F)(F)F)c1 assigned_class=inactive
compound=CC1=NN(C(=O)Cc2ccccc2)C(=O)/C1=C\c1cccc(O)c1 assigned_class=inactive
compound=Cc1ccc(-n2c(C)nc3c2C(=O)c2ccccc2C3=O)cc1 assigned_class=inactive
compound=BrC1=CC=C2NCCCCCC/N=C3\C=CC(Br)=CC=C3NCCCCCC/N=C\2C=C1 assigned_class=inactive

Task: What call does the record list for COc1ccc2[nH]c3c(C)c4ccncc4c(C)c3c2c1 ?
Result: active

Task: Then this compound: CC(CNCCCNCCNCCCNCO)[N+](=O)[O-] (centres undefined)
Result: inactive

Task: Then this compound: Cc1cc2oc(=O)c(Cl)c(Cl)c2c(C)c1Cl
Result: inactive

Task: Then this compound: O=C(NNC(=O)c1ccccc1O)c1cccc(Br)c1
Result: inactive

Task: Then this compound: CC(=O)OCC1OC(n2c(S)nc(-c3ccccc3)c(C#N)c2=O)C(OC(C)=O)C(OC(C)=O)C1OC(C)=O (centres undefined)
Result: inactive
